Measured values drawn from patent US20190241669A1 for this set.

- Tested on: T1, cynomolgus monkey BCMA (cynomolgus monkey, UniProt A0A2K5UD97 1-53)
- T1 construct: Soluble analyte in SPR; construct not described; also called cyBCMA; Cyno BCMA
- T1 sequence (A0A2K5UD97 entry or part of it): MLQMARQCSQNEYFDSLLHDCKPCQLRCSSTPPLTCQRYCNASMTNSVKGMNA
- Method: SPR, IgG on chip, cyBCMA analyte
For each record, write down the corresponding Kd.
Enter your answer as a number in nM; do not include the unit.

Q: What value of measured Kd is listed for C01_Rd4_6nM_C10 (antibody, V domains shown, IgG) VH: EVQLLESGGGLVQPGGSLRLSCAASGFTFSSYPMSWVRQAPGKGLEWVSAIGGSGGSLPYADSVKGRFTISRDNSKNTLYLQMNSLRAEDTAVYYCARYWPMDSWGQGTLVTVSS VL: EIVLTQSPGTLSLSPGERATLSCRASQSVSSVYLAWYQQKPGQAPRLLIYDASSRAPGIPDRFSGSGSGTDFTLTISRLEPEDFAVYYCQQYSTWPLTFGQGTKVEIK ?
A: 0.493

Q: What value of measured Kd is listed for A02_Rd4_6nM_C04 (antibody, V domains shown, IgG) VH: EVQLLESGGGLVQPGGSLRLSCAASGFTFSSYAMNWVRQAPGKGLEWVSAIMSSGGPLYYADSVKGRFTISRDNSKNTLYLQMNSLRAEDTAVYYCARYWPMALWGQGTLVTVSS VL: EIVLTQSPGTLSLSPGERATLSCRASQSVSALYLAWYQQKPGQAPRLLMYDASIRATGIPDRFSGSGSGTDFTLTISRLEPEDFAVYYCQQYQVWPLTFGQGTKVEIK ?
A: 0.381

Q: What value of measured Kd is listed for COMBO_Rd4_6nM_C10 (antibody, V domains shown, IgG) VH: EVQLLESGGGLVQPGGSLRLSCAASGFTFSSYPMSWVRQAPGKGLEWVSAIGGSGGSIHYADSVKGRFTISRDNSKNTLYLQMNSLRAEDTAVYYCARYWPMDSWGQGTLVTVSS VL: EIVLTQSPGTLSLSPGERATLSCRASQSVSSSYWGWYQQKPGQAPRLLMYDASIRATGIPDRFSGSGSGTDFTLTISRLEPEDFAVYYCQQYQCWPLTFGQGTKVEIK ?
A: 0.105
